SYSTEM TESTED: Muscleblind-like protein 1 (Homo sapiens) (UniProt Q9NR56)
Sequence (Q9NR56 whole entry, looked up): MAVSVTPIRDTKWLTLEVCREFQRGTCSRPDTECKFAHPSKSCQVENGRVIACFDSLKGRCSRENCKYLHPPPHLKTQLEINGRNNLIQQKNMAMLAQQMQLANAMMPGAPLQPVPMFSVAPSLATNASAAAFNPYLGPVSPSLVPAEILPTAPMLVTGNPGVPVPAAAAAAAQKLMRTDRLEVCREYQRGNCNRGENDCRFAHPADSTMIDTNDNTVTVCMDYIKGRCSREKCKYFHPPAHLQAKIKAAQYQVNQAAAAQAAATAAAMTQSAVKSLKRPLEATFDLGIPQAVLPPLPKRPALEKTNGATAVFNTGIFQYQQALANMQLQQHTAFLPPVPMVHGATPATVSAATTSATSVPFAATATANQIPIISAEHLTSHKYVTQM
ASSAY TEXT: qHTS Assay for Inhibitors of MBNL1-poly(CUG) RNA binding
RUN CONDITIONS: TR-FRET MBNL1-His/biotin-(CUG)12 binding, 665/545 ratio; series mostly up to 57.5 µM
Among all 280,000 compounds or so, about 100 (0.036%) were called active. Roughly 11% stayed inconclusive and do not appear here. The sample holds actives, similar compounds and a random draw of the others, so the mix is not that of the screen.
MEASUREMENT LABEL: activity change, negative = inhibition

Previously resolved entries follow.
MOLECULE | activity change, negative = inhibition
COc1ccc(-c2nc3ccccc3c(=O)n2CCc2ccc(O)cc2)cc1 | inactive
CCOCCCNc1nc(-c2ccccc2)nc2ccccc12 | inactive
CC(CCc1ccc(O)cc1)NCc1ccc(Cl)cc1Cl (centres undefined) | inactive
CCCCCN(C(=O)CCC(=O)OCC(=O)NCc1ccc(OC)cc1)c1c(N)n(CCCC)c(=O)[nH]c1=O | inactive

[in] Dear colleague, I am looking for the recorded activity change, negative = inhibition of the following molecule: "COc1cc(C(=O)NCc2ccncc2)cc(Br)c1OCc1ccccc1"
[out] inactive

[in] Dear colleague, I am looking for the recorded activity change, negative = inhibition of the following molecule: "CCOc1ccc(NC(=O)C2CCN(C(=O)N3CCOc4ccccc43)CC2)cc1"
[out] inactive

[in] Dear colleague, I am looking for the recorded activity change, negative = inhibition of the following molecule: "COc1cc(C(=O)NCC2(c3ccccc3)CCCC2)ccc1OC(C)C"
[out] inactive

[in] Dear colleague, I am looking for the recorded activity change, negative = inhibition of the following molecule: "O=C(NCCCN1CCOCC1)c1ccc2c(c1)N(Cc1cccc(F)c1)C(=O)c1ccccc1S2"
[out] inactive

[in] Dear colleague, I am looking for the recorded activity change, negative = inhibition of the following molecule: "COc1cccc(C(=O)Nc2ccc(N3CCN(C(=O)c4ccco4)CC3)cc2)c1"
[out] inactive

[in] Dear colleague, I am looking for the recorded activity change, negative = inhibition of the following molecule: CCOc1ccc(NC(=O)C(C)N2C(=O)c3ccccc3C2=O)cc1 (centres undefined)
[out] inactive

====

SYSTEM TESTED: Muscleblind-like protein 1 (Homo sapiens) (UniProt Q9NR56)
ASSAY TEXT: qHTS Assay for Inhibitors of MBNL1-poly(CUG) RNA binding
RUN CONDITIONS: TR-FRET MBNL1-His/biotin-(CUG)12 binding, 665/545 ratio; series mostly up to 57.5 µM
About 100 (0.036%) of roughly 280,000 compounds were called active. Roughly 11% stayed inconclusive and do not appear here. Many of the other results were omitted from the sample, so actives are more common in it than they were.

COMPOUND | activity change, negative = inhibition
CCC(C)[C@H](NC(=O)N1CCn2c1nc1ccccc12)C(=O)NCc1ccc(OC)cc1 (some centres undefined) | inactive
O=C(CNc1cccc(S(=O)(=O)N2CCCCC2)c1)Nc1ccccc1F | inactive
COc1cccc(OCC(O)CNC(=O)c2oc3c(C)c(C)ccc3c2C)c1 (centres undefined) | inactive
CN(C)C(=O)CCC(=O)N1CCCCC1C(=O)Nc1ccc(Oc2ccccc2F)cc1 (centres undefined) | inactive
